# System name: human NTPDase2 (Homo sapiens, UniProt Q9Y5L3)
# Construct: expressed in transfected cells; host or cells: COS-7 cells (membrane preparation)
# Sequence (Q9Y5L3 whole entry): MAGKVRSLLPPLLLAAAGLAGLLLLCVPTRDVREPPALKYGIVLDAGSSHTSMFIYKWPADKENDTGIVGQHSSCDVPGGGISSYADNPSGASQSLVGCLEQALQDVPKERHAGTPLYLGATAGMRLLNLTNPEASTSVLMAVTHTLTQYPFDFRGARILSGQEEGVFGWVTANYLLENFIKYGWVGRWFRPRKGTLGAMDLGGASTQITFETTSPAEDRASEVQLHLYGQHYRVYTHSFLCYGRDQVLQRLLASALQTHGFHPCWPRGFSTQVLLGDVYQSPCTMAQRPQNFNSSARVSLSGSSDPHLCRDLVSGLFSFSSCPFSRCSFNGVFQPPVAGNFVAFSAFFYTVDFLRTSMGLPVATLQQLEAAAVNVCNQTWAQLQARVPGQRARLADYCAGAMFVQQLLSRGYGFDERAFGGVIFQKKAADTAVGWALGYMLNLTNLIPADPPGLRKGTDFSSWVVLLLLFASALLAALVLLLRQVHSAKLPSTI
# Assay procedure: Malachite green assay, human NTPDase2
# Assay type: biochemical
# Test conditions: 2 μM compound; 100 µM ATP; COS-7 membrane preparation; read-out: % inhibition at 2 μM concentration, NTPDase2
Reported property: inhibition at 2 µM (%)

Sample answers from the record:
Nc1ccc(Nc2cc(S(=O)(=O)O)c(N)c3c2C(=O)c2ccccc2C3=O)cc1 ... 17
Nc1c(S(=O)(=O)[O-])cc(Nc2cccc(CO)c2)c2c1C(=O)c1ccccc1C2=O.[Na+] ... 7
Nc1c(S(=O)(=O)O)cc(Nc2ccc(S(=O)(=O)O)c(Nc3nc(Cl)nc(Cl)n3)c2)c2c1C(=O)c1ccccc1C2=O ... 10

[I] O=C(O)c1cc(Nc2cc(S(=O)(=O)O)cc3c2C(=O)c2ccccc2C3=O)ccc1O
[II] Nc1c(S(=O)(=O)O)cc(NCCc2ccccc2)c2c1C(=O)c1ccccc1C2=O
-- ask Problem: Given the entries I and II , determine which has the lower reported inhibition at 2 µM. # reply format: chosen label
-- reply I

###

# System name: human NTPDase1 (Homo sapiens, UniProt P49961)
# Construct: expressed in transfected cells; host or cells: COS-7 cells (membrane preparation)
# Sequence (P49961 whole entry): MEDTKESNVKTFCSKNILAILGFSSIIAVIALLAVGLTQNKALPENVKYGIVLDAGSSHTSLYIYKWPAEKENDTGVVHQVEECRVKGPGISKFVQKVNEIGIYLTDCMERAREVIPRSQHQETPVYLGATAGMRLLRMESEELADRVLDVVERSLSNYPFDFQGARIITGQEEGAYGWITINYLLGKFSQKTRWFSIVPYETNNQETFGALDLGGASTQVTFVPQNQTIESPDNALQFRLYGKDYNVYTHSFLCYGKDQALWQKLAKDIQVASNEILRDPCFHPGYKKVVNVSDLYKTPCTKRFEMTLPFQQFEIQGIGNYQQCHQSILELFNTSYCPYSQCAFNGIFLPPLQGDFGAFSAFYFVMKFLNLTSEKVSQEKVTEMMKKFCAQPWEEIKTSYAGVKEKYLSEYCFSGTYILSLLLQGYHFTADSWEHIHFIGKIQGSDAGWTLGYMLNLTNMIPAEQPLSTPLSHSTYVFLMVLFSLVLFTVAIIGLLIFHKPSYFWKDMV
# Assay procedure: Malachite green assay, human NTPDase1
# Type: biochemical
# Test conditions: 2 μM compound; 50 µM ATP; COS-7 membrane preparation; read-out: % inhibition at 2 μM concentration, NTPDase1
Reported property: inhibition at 2 µM (%)

Look over these answered cases.
Nc1c(S(=O)(=O)[O-])cc(Nc2cccc(CC(=O)O)c2)c2c1C(=O)c1ccccc1C2=O.[Na+] ... -6
Nc1c(Br)cc(Nc2cccc(C(=O)O)c2)c2c1C(=O)c1ccccc1C2=O ... -2
Nc1c(S(=O)(=O)[O-])cc(Nc2ccc(CO)cc2)c2c1C(=O)c1ccccc1C2=O.[Na+] ... -4
Nc1c(S(=O)(=O)O)cc(Nc2ccc3ccccc3c2)c2c1C(=O)c1ccccc1C2=O ... -8
Nc1c(S(=O)(=O)[O-])cc(Nc2ccc(O)cc2F)c2c1C(=O)c1ccccc1C2=O.[Na+] ... -8
Nc1ccc(Nc2cc(S(=O)(=O)O)c(N)c3c2C(=O)c2ccccc2C3=O)cc1 ... -19
Nc1c(S(=O)(=O)O)cc(NCCc2ccccc2)c2c1C(=O)c1ccccc1C2=O ... -12
Nc1c(S(=O)(=O)O)cc(Nc2ccc(Cc3ccccc3)cc2)c2c1C(=O)c1ccccc1C2=O ... 7

[a] Cc1cc(Cl)ccc1Nc1cc(S(=O)(=O)O)c(N)c2c1C(=O)c1ccccc1C2=O
[b] Nc1c(S(=O)(=O)O)cc(Nc2cccc([N+](=O)[O-])c2)c2c1C(=O)c1ccccc1C2=O
-- ask Param pair: a , b . Output: the one whose inhibition at 2 µM is numerically greater. Mark your selection by writing its label.
-- reply a

###

# System name: human NTPDase1 (Homo sapiens, UniProt P49961)
# Construct: expressed in transfected cells; host or cells: COS-7 cells (membrane preparation)
# Assay procedure: Malachite green assay, human NTPDase1
# Type: biochemical
# Test conditions: 2 μM compound; 50 µM ATP; COS-7 membrane preparation; read-out: % inhibition at 2 μM concentration, NTPDase1
Reported property: inhibition at 2 µM (%)

[P] Nc1c(S(=O)(=O)O)cc(Nc2ccc(Sc3ccccc3)c(Cl)c2)c2c1C(=O)c1ccccc1C2=O
[Q] Nc1c(S(=O)(=O)O)cc(Nc2ccc(Cl)cc2C(=O)O)c2c1C(=O)c1ccccc1C2=O
[R] Nc1c(S(=O)(=O)O)cc(Nc2cccc(Oc3ccccc3)c2)c2c1C(=O)c1ccccc1C2=O
[S] Cc1ccc(Sc2ccc(Nc3cc(S(=O)(=O)O)c(N)c4c3C(=O)c3ccccc3C4=O)cc2)c(C)c1
[T] Nc1c(S(=O)(=O)[O-])cc(Nc2cccc(I)c2)c2c1C(=O)c1ccccc1C2=O.[Na+]
-- ask Order these compounds (above) by their inhibition at 2 µM, from the smallest value upward. Use the labels to give the ranking in the order requested.
-- reply Q, T, R, P, S

[I] Nc1cc(Nc2cc(S(=O)(=O)O)c(N)c3c2C(=O)c2ccccc2C3=O)ccc1S(=O)(=O)O
[II] COc1ccc(Sc2ccc(Nc3cc(S(=O)(=O)[O-])c(N)c4c3C(=O)c3ccccc3C4=O)cc2)cc1.[Na+]
[III] Nc1ccc(Nc2cc(S(=O)(=O)O)c(N)c3c2C(=O)c2ccccc2C3=O)cc1S(=O)(=O)O
[IV] Nc1c(S(=O)(=O)[O-])cc(Nc2ccccc2CO)c2c1C(=O)c1ccccc1C2=O.[Na+]
[V] COc1cccc(Nc2cc(C)c(N)c3c2C(=O)c2ccccc2C3=O)c1
-- ask Please list the entries, largest inhibition at 2 µM first. Returns: the labels listed in the requested order.
-- reply II, III, IV, V, I
(II: 34%, III: 10%, IV: -1%, V: -6%, I: -15%)

[P] Cc1ccc(C)c(Sc2ccc(Nc3cc(S(=O)(=O)O)c(N)c4c3C(=O)c3ccccc3C4=O)cc2)c1
[Q] CCc1cccc(Nc2cc(Br)c(N)c3c2C(=O)c2ccccc2C3=O)c1
-- ask Form field 'greater inhibition at 2 µM' accepts P or Q ; which applies? Respond using the label that marks the chosen record.
-- reply P
(P: 38%, Q: -4%)
